Please respond with reported pKd for every item in the list.
Target: recombinant MAVS protein
Sequence (Q7Z434 2-540): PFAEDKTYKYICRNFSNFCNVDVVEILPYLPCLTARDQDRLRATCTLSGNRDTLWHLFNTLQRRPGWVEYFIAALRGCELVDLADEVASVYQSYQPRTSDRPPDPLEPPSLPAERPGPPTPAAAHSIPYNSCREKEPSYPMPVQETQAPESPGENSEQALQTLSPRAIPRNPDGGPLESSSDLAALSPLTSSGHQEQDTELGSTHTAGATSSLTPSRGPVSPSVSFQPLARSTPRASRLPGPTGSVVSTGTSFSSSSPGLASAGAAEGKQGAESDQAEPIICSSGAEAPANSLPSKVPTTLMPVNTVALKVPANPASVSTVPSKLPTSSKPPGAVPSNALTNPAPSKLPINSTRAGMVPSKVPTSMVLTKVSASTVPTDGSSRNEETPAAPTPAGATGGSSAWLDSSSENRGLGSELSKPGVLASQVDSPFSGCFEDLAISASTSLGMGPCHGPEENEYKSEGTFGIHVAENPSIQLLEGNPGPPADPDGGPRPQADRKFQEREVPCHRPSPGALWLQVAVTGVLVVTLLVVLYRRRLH
Assay: fluorescence-labeled peptide titrated on plate-coated recombinant MAVS (250 ng per well), fluorescence read-out
Where no end group is shown, it is not given here.
Note on pKd: it is the negative log10 of concentration, concentration in mol/L.

Ask: Value lookup for pKd; key = SLVLAAARW (also: fluorescence-labeled, label and position not given here) [fluorescence-labeled novel alanine-substituted peptide MQP-37A6]
Result: 3.12

Ask: Param item = SLVLADARW (also: fluorescence-labeled, label and position not given here) [fluorescence-labeled peptide MQP-37] ; retrieve measured pKd.
Result: 1.80

Hello, the source for this data is patent US20230203097A1, in case you need it.
